Measurement target: mu opioid receptor (Homo sapiens, UniProt P35372)
Sequence (P35372 whole entry): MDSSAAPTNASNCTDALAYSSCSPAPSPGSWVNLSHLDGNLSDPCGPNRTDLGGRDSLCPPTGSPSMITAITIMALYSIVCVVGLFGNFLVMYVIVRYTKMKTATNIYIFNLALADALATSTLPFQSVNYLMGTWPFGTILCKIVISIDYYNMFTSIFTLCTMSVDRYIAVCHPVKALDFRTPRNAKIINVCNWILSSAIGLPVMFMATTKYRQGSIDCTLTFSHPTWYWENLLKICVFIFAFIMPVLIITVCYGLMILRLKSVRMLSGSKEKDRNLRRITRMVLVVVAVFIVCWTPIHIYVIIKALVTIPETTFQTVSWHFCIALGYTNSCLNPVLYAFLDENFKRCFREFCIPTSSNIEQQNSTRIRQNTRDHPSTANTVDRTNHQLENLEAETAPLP
Experiment: Filtration binding assay: mu opioid receptor
Property measured: IC50 (µM)
Respond with the bare value in µM.

// below: answered compounds
What measured IC50 goes with CC(=O)NC(CSC[C@H](O)CN1CN(c2ccc(F)cc2)C2(CCN(CC3CCCCCCC3)CC2)C1=O)C(=O)O (single isomer, unassigned) ? 0.48

What measured IC50 goes with CC(C)(C)N(Cc1ccccc1)C[C@H](O)CN1CN(c2ccc(F)cc2)C2(CCN(Cc3cccc4ccccc34)CC2)C1=O ? 1.2

What measured IC50 goes with CN(C)CCN(Cc1ccccc1)C[C@H](O)CN1CN(c2ccc(F)cc2)C2(CCN(CC3CCCCCCC3)CC2)C1=O ? 3.43

What measured IC50 goes with COC(=O)c1ccc(CNC[C@H](O)CN2CN(c3ccc(F)cc3)C3(CCN(C4Cc5cccc6cccc4c56)CC3)C2=O)cc1 (mixture of isomers) ? 5.42

What measured IC50 goes with O=C1N(C[C@@H](O)CN(Cc2ccccc2)C[C@@H]2CCCC[C@@H]2O)CN(c2ccc(F)cc2)C12CCN(CC1CCCCCCC1)CC2 ? 0.93

What measured IC50 goes with CCN(Cc1ccc(C)cc1)C[C@H](O)CN1CN(c2ccc(F)cc2)C2(CCN(Cc3cccc4ccccc34)CC2)C1=O ? 3.7

What measured IC50 goes with CN(C)c1ccc(CNC[C@@H](O)CN2CN(c3ccccc3)C3(CCN(CCc4ccccc4-c4cccs4)CC3)C2=O)cc1 ? 0.103

What measured IC50 goes with O=C1N(C[C@@H](O)CNc2ccc(-c3ccccc3)cc2)CN(c2ccc(F)cc2)C12CCN(CC1CCCCCCC1)CC2 ? 0.94

Continuing:
What measured IC50 goes with O=C1N(C[C@H](O)CNCCc2c[nH]cn2)CN(c2ccc(F)cc2)C12CCN(CC1CCCCCCC1)CC2 ? 0.16

---

Measurement target: UniProtKB P35372
Experiment: Filtration binding assay: mu opioid receptor
Property measured: pIC50
Remember, pIC50 is on a log scale: it is -log10 of the molar concentration.

// below: answered compounds
What measured pIC50 goes with COc1ccc(CCN(C)C[C@H](O)CN2CN(c3ccc(F)cc3)C3(CCN(Cc4cccc5ccccc45)CC3)C2=O)cc1OC [compound 256] ? 5.26

What measured pIC50 goes with COc1ccccc1CNC[C@H](O)CN1CN(c2ccc(F)cc2)C2(CCN(CC3CCCCCCC3)CC2)C1=O [compound 14] ? 5.92

What measured pIC50 goes with O=C1N(C[C@@H](O)CN(CCc2ccccc2)Cc2ccccc2)CN(c2ccccc2)C12CCN(CCc1ccccc1-c1cccs1)CC2 [compound 230] ? 6.82

Continuing:
What measured pIC50 goes with O=C1N(C[C@@H](O)CN2CCN(c3cccc(C(F)(F)F)c3)CC2)CN(c2ccc(F)cc2)C12CCN(C1Cc3cccc4cccc1c34)CC2 (mixture of isomers) [compound 333] ? 6.62

What measured pIC50 goes with NC[C@H](O)CN1CN(c2ccc(F)cc2)C2(CCN([C@@H]3Cc4cccc5cccc3c45)CC2)C1=O [Compound #424] ? 6.55

What measured pIC50 goes with O=C1N(C[C@@H](O)CNc2ccc(Br)cn2)CN(c2ccc(F)cc2)C12CCN(CC1CCCCCCC1)CC2 [compound 13] ? 6.21

---

The following compounds are listed with their measured pIC50 values.
Measurement target: D2 receptor (Homo sapiens)
Sequence (P14416 whole entry): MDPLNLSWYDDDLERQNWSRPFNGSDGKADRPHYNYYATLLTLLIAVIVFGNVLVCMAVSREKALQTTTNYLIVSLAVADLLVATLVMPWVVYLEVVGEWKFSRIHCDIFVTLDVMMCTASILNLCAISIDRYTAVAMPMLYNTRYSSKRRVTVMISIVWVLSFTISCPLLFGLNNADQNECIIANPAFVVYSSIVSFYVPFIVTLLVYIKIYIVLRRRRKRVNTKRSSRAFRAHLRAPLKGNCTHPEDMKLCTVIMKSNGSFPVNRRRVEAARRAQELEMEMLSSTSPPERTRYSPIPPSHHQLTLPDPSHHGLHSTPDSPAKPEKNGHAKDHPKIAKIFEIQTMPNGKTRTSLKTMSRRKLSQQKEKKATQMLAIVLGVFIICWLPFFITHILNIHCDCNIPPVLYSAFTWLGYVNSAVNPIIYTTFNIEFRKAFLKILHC
Experiment: Filtration binding assay, dopamine (Spiperone-I125)
Conditions used: D2 receptor, Spiperone-I125; read-out: IC50
Remember, pIC50 is on a log scale: it is -log10 of the molar concentration.

What measured pIC50 goes with CCN(C)C[C@H](O)CN1CN(c2ccc(F)cc2)C2(CCN(Cc3cccc4cccc(C)c34)CC2)C1=O ? 5.82

For the next question, use this compound.
What measured pIC50 goes with NC[C@H](O)CN1CN(c2ccc(F)cc2)C2(CCN([C@@H]3Cc4cccc5cccc3c45)CC2)C1=O ? 6.56

Numbers sourced from patent US7582649B2.
